# Test system: Plasmopara viticola
# TEST_PROTOCOL: Plasmopara test (grapevines)/preventive
# Type: in vivo
# EXPERIMENTAL_CONTEXT: application rate 0.4 ppm a.i.
Please go through the items and note down their Efficacy in % found.
Give bare numbers, in %.

[[record]]
compound = "COCC(=O)N(c1c(C)cccc1C)[C@H](C)C(=O)OC [(12.10), metalaxyl-M]"
value_kind = "Efficacy in % found"
recorded_result = 57


I'm hoping you can list Efficacy in % found for every compound here, please.
1. Cc1ccc(-c2c(Cl)nc(C#N)n2S(=O)(=O)N(C)C)cc1
2. COC(=O)[C@@H](C)N(C(=O)Cc1ccccc1)c1c(C)cccc1C
3. C#CCCOC(=O)Nc1cccc(CO/N=C(/c2ccccc2)c2nnnn2C)n1
4. CCC(C)(NC(=O)c1cc(Cl)c(C)c(Cl)c1)C(=O)CCl (centres unmarked) [(4.9), zoxamide]

# output
[0, 0, 46, 0]

----------
Please go through the items and note down their Efficacy in % found.
# Tested on: Plasmopara viticola
# TEST_PROTOCOL: Plasmopara test (grapevines)/preventive
# Format: in vivo
# EXPERIMENTAL_CONTEXT: application rate 0.4 ppm a.i.
Give bare numbers, in %.

[[record]]
compound = "Cc1ccc(C(C)NC(=O)[C@@H](NC(=O)OC(C)C)C(C)C)cc1 (stereo partly drawn)"
recorded_result = 0

[[record]]
compound = "O=C(NCc1ncc(C(F)(F)F)cc1Cl)c1c(Cl)cccc1Cl [(15.17), fluopicolide]"
recorded_result = 43


# input Entry under review: `O=C(OCc1c(F)cccc1Cl)c1csc(C2CCN(C(=O)Cn3nc(C(F)F)cc3C(F)F)CC2)n1` . Reported Efficacy in % found?
# output 0
